B1: H2-Kb / Ed16-1 (parent complex)
chain 1: GEQVEQRPPHLSVREGDSAVITCTYTDPNSYYFFWYKQEPGASLQLLMKVFSSTEINEGQGFTVLLNKKDKRLSLNLTAAHPGDSAAYFCAVSGSNNRIFFGDGTQLVVKP
chain 2: EAAVTQSPRSKVAVTGGKVTLSCHQTNNHDYMYWYRQDTGHGLRLIHYSYVADSTEKGDIPDGYKASRPSQENFSLILELASLSQTAVYFCASRTGTDYTFGSGTRLLVI
chain 3: not shown
chain 4: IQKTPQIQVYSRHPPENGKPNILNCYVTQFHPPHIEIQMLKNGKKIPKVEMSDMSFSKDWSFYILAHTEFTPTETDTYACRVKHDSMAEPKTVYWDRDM
chain 5: SIINFEKL

# Variants of: B1
# TEST METHOD NOTES: % of reporter cells activated (NFAT-GFP), raw; note: test concentration or dose not given here
MEASURED METRIC: ratio to parent

VARIANT DESCRIPTOR: chain 5 K7P
MEASURED METRIC: ratio to parent
EXPERIMENTAL VALUE: 1.17

[P] chain 5 I2H
[Q] chain 5 I2L
[R] chain 5 S1Y
q: List these items ordered by ratio to parent, big to small. Answer format: list of labels, ordered as asked.
a: Q, P, R

[A] chain 5 F5I
[B] chain 5 I3Y
[C] chain 5 I2R
[D] chain 5 N4F
q: Let's sort these by ratio to parent, smallest first. Go ahead? Answer format: list of labels, ordered as asked.
a: B, D, C, A
(B: 0.00742, D: 0.0302, C: 0.651, A: 0.96)

[P] chain 5 F5P
[Q] chain 5 I3A
q: Please indicate which entry, P or Q , has the lower recorded ratio to parent value. Label of pick, please.
a: P
(P: 0.181, Q: 0.883)

[A] chain 5 K7L
[B] chain 5 N4D
q: Please indicate which entry, A or B , has the lower recorded ratio to parent value. Label of pick, please.
a: B
(B: 0.0372, A: 0.832)

[1] chain 5 E6L
[2] chain 5 N4Y
[3] chain 5 K7H
[4] chain 5 N4S
q: Let's sort these by ratio to parent, smallest first. Go ahead? Answer format: list of labels, ordered as asked.
a: 1, 2, 4, 3

[P] chain 5 L8N
[Q] chain 5 S1K
q: Please indicate which entry, P or Q , has the lower recorded ratio to parent value. Label of pick, please.
a: Q

[A] chain 5 E6G
[B] chain 5 F5A
q: Determine, for A and B , which has the greater value of ratio to parent. Label of pick, please.
a: B
(B: 0.976, A: 0.187)

Ref: paper PMC11480844
